From various publications: Ki for Cytochrome P450 1B1 (Homo sapiens, UniProt Q16678).
Simple rule here: Ki less than 200 nM is TRUE, otherwise FALSE.

Solved cases (5 shown):
> print(dat)
                           compound.smiles  answer.label
1    Cc1cc2c(ccc3c(-c4ccccc4)cc(=O)oc32)o1         FALSE
2        O=c1cc(-c2ccccc2)oc2c1ccc1ncccc12          TRUE
3   Cc1nc2c([nH]1)c(=O)n(C)c(=O)n2Cc1ccco1         FALSE
4    COc1cc(O)c2c(=O)cc(-c3ccc(O)cc3)oc2c1         FALSE
5  O=c1cc(-c2ccccc2)oc2c3c(cc(O)c12)OCC=C3          TRUE

Given COc1cc2oc(-c3ccc(O)c(O)c3)cc(=O)c2c(O)c1OC , is recorded Ki strictly lower than 200 nM?
FALSE

Given O=c1cc(-c2ccccc2)oc2cc(O)c(O)c(O)c12 , is recorded Ki strictly lower than 200 nM?
FALSE

Given Cc1cc2c(ccc3c(=O)cc(-c4ccccc4)oc32)o1 , is recorded Ki strictly lower than 200 nM?
TRUE

Given COc1cc(/C=C/c2ccc(O)cc2)cc(OC)c1 , is recorded Ki strictly lower than 200 nM?
FALSE
